The measurements presented in this section are drawn from patent US20230348450A1.

The entries below come with measured EC50 values attached.
molecular target: human Bisphosphoglycerate mutase (hBPGM) (Homo sapiens (Human)); test: BPGM Phosphatase Assay; settings: Table 6 additional results; read-out: huBPGM: phosphatase Enzyme EC50
Sequence (P07738 whole entry): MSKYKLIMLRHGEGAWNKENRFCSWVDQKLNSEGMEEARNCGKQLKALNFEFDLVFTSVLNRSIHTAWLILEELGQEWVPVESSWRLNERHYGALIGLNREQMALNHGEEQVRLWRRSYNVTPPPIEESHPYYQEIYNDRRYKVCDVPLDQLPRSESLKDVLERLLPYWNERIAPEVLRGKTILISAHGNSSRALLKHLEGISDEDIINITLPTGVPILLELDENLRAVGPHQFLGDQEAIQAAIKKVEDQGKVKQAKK
Readout label: EC50 (nM)

Compound	Readout units	Censoring sign	Measured value
Cc1nc(COc2cccc(N)n2)sc1-c1csc(-c2cc(O)c(C(=O)O)cc2F)n1	nM	=	250
CC(=O)NCc1nc(C)c(-c2cccc(-c3ccc(C(=O)O)c(O)c3)c2)s1	nM	=	2100
COC(=O)NCc1nc(C)c(-c2ccnc(-c3cc(O)c(C(=O)O)cc3F)n2)s1	nM	>	25000
Cc1nc(C)c(-c2cc(-c3cc(O)c(C(=O)O)cc3F)sn2)s1	nM	=	280
Cc1nc(C)c(-c2csc(-c3cc(O)c(C(=O)O)c(F)c3)n2)s1	nM	=	1800
Cc1ccc(Cc2nc(C)c(-c3csc(-c4cc(O)c(C(=O)O)cc4F)c3)s2)cn1	nM	=	100
COC(=O)NCc1nc(C)c(-c2ccnc(-c3ccc(C(=O)O)c(O)c3)n2)s1	nM	=	30
Cc1nc(CNC(=O)C2CC2)sc1-c1csc(-c2cc(O)c(C(=O)O)cc2F)n1	nM	=	93
Cc1nc(CNc2ncccn2)sc1-c1cccc(-c2ccc(C(=O)O)cc2)n1	nM	>	25000
Cc1nc(CN2CCOC2=O)sc1-c1cccc(-c2ccc(C(=O)O)c(O)c2)c1	nM	=	1400
Cc1nc(COC(=O)N(C)C)sc1-c1cccc(-c2ccc(C(=O)O)cc2)c1	nM	=	550
Cc1nc(CNC(=O)C2COC2)sc1-c1cccc(-c2ccc(C(=O)O)c(O)c2)c1	nM	=	3900
Cc1nc(C)c(-c2csc(-c3ccc(C(=O)O)c(O)c3)n2)s1	nM	=	80
Cc1nc(CNc2ncccn2)sc1-c1csc(-c2cc(O)c(C(=O)O)cc2F)n1	nM	=	70
Cc1nc(CNC(=O)C2CCN(C)C2)sc1-c1csc(-c2cc(O)c(C(=O)O)cc2F)n1 (centres unmarked)	nM	=	420
Cc1nc(COc2ncccn2)sc1-c1cccc(-c2csc(C(=O)O)c2)n1	nM	=	110
Cc1nc(Cc2ccccc2)sc1-c1csc(-c2cc(O)c(C(=O)O)cc2F)n1 [Example 165]	nM	=	40
